- experiment description: Preparation of neutralized 3-HP stock solution (observation at neutral pH)
- Format: physicochemical
- test context: pH 7, aqueous buffer
measurement name: solubility

Look up and state reported solubility for O=C(O)CCO [Strain 3-HP, 3-hydroxypropionic acid] > 35 mg/mL

====

I'd be grateful if you could share measured % Increase Over Control for these entries.
- System: E. Coli BW25113
- experiment description: MIC evaluation general protocol, E. Coli anaerobic (Tables 7 and 9)
- Assay type: cell-based
- test context: MIC vs BW25113 in M9 without supplement, anaerobic
# value in %; strip the unit string

Item NCCCCN [Putrescine] : provide % Increase Over Control 17

Quick one: give measured % Increase Over Control for N[C@@H](Cc1ccccc1)C(=O)O [Phenylalanine] 7

Entry CSCC[C@H](N)C(=O)O [Methionine] needs its % Increase Over Control filled in; supply it. 43

Tell me measured % Increase Over Control for O=C(O)c1cccc(O)c1O [Dihydroxybenzoate, 2,3-dihydroxybenzoic acid] please. 33

Let me know recorded % Increase Over Control for NCCCCNCCCN [Spermidine] , thanks. 17

Give me measured % Increase Over Control, please, for this molecule: N[C@@H](CCO)C(=O)O [Homoserine] 0

====

- System: E. Coli Mach1-T1®
- experiment description: MIC of 3-HP, microaerobic, 96-well, MOPS minimal media (Examples 2 and 4)
- Assay type: cell-based, Escherichia coli
- test context: supplement added to MOPS minimal media, 24 hours
# note: boundary value 30% maps to 0 (no); MIC increases (3-HP) with supplementation below it maps to 1 (yes)

Report whether reported MIC increases (3-HP) with supplementation is lower than 30% (strictly) for Cl.NC1CCSC1=O (centres unmarked) [homocysteine thiolactone hydrochloride] 0 (no)

Quick check: does O=C(O)c1cccc(O)c1O [Dihydroxybenzoate, 2,3-dihydroxybenzoic acid] have MIC increases (3-HP) with supplementation under 30%? 0 (no)

Just wondering, is MIC increases (3-HP) with supplementation of Cc1ncc(CO)c(CO)c1O.Cl [pyridoxine hydrochloride] below 30%? 1 (yes)

Criterion: MIC increases (3-HP) with supplementation strictly below 30%. Is it met by CCC(=O)C(=O)O [2-oxobutyrate] ? 1 (yes)

In plain terms, does NNC(=O)c1ccc(O)cc1 [p-hydroxybenzoic acid hydrazide] come in under 30% for MIC increases (3-HP) with supplementation? 0 (no)

Hi there! Is MIC increases (3-HP) with supplementation for N[C@@H](Cc1ccc(O)cc1)C(=O)O [Tyrosine] below 30%, do you know? 0 (no)

API: query returns whether the compound falls strictly under 30% in MIC increases (3-HP) with supplementation. Query: N[C@@H](CCO)C(=O)O [Homoserine] 0 (no)

Given Nc1ccc(C(=O)O)cc1 [p-aminobenzoate] , is recorded MIC increases (3-HP) with supplementation strictly lower than 30%? 1 (yes)

Dear colleague, could you confirm whether MIC increases (3-HP) with supplementation of C[C@@H](O)[C@H](N)C(=O)O [Threonine] falls below 30%? Thanks. 1 (yes)

Is MIC increases (3-HP) with supplementation strictly under 30% for the entry N[C@@H](Cc1ccccc1)C(=O)O [Phenylalanine] ? 0 (no)

Given the entry N[C@@H](Cc1c[nH]c2ccccc12)C(=O)O [Tryptophan] , would its reported MIC increases (3-HP) with supplementation be below 30%? 0 (no)
